System: HCT-15 colon
Assay: NCI-60 one-dose screen, 48 h (100 = growth as untreated, 0 = no growth, -100 = all killed)
Details: 10 µM unless noted
Protocol: Growth inhibition of the HCT-15 human tumor cell line is measured as a screen for anti-cancer activity. Cells are grown in 96 well plates and exposed to the test compound for 48 hours. Compounds are tested at a single concentration, which is 10^-5 M for most compounds. The reported endpoint is percent growth (GI% or GIPRCNT), where numbers from 0 - 100% represent growth inhibition, and numbers from -100% - 0 represent cell death. For example, a value of 40 represents 60% growth inhibition. […]
This is part of a sample that, as a whole, favours compounds with a hit. Of some 83,000 tested, about 20% had one in any assay.
Reported values of growth for individual entries
Supply the numeric figure in %, leaving out any unit text.

**Query** State its growth: "Nc1ccc2c(c1)/C(=N/O)c1cc([N+](=O)[O-])ccc1-2"
**Result** 61.2

----------
Tested on: MDA-MB-435 melanoma
Assay: NCI-60 one-dose screen, 48 h (100 = growth as untreated, 0 = no growth, -100 = all killed)
Conditions: 10 µM unless noted
Description: Growth inhibition of the MDA-MB-435 human Melanoma tumor cell line is measured as a screen for anti-cancer activity. Cells are grown in 96 well plates and exposed to the test compound for 48 hours. Compounds are tested at a single concentration, which is 10^-5 M for most compounds. The reported endpoint is percent growth (GI% or GIPRCNT), where numbers from 0 - 100% represent growth inhibition, and numbers from -100% - 0 represent cell death. […]
The panel holds about 83,000 compounds, 20% with a hit somewhere; the sample as a whole holds those more often.
OBSERVATION_TYPE: growth (%)
Supply the numeric figure in %, leaving out any unit text.

**Query** State its growth: "CCOC(=O)/C=C(/C)Sc1cc(O)c2ccccc2c1O"
**Result** -82.2

**Query** State its growth: "O=[P@@]1(c2ccccc2)O[C@H](COCc2ccccc2)[C@@H](OCc2ccccc2)[C@H](OCc2ccccc2)[C@H]1NCc1ccccc1"
**Result** 9.72

**Query** State its growth: CCC(O)C(C)(C)C (centres undefined)
**Result** 105

**Query** State its growth: O=C(O)c1ccccc1C(=O)OC1CCCC2CCCC21 (centres undefined)
**Result** 118

**Query** State its growth: CO[C@H]1/C=C/O[C@@]2(C)Oc3c(C)c(O)c4c(O)c(c(/C=N/N5C(C)CN(Cc6ccccc6)CC5C)c(O)c4c3C2=O)NC(=O)/C(C)=C\C=C\[C@H](C)[C@H](O)[C@@H](C)[C@@H](O)[C@@H](C)[C@H](OC(C)=O)[C@@H]1C (some centres undefined)
**Result** 86.6

**Query** State its growth: COc1cc2c(C#N)n3c(c2cc1OC)C(=O)C(c1ccccc1)Oc1ccccc1-3 (centres undefined)
**Result** 55.5

**Query** State its growth: C=C1c2c(C)nn(-c3ccc(C#CCOC4OC(CO)C(O)C(O)C4O)cc3)c2N(C)C23C[C@H]1C1(C)c4c(C)nn(-c5ccc(C#CCOC6OC(CO)C(O)C(O)C6O)cc5)c4N(C)C(C)(C[C@H]12)C3 (some centres undefined)
**Result** 0.0883

**Query** State its growth: CC(O)c1nc2c(c(=O)n(C)c(=O)n2C)n1C (centres undefined)
**Result** 111

// moving on: another record for growth
**Query** State its growth: "CN1CCN(CC(=O)Nc2nc3c(s2)Nc2cc(Cl)c(Cl)cc2NC3=O)CC1"
**Result** 107

----------
test system: KM12 colon; experiment: NCI-60 one-dose screen, 48 h; details: 10 µM unless noted
The panel holds about 83,000 compounds, 20% with a hit somewhere; the sample as a whole holds those more often. The source made the active and inactive calls. Rule for the calls: active = growth percent below 10; inactive = the rest.
Please reply with one of these outcomes: yes = active, no = inactive

Example entries begin here.
**Query** Could you check what this test reported for O=C(O)c1ccccc1C(=O)OC1CCCC2CCCC21 (stereo not given) ?
**Result** no

**Query** Could you check what this test reported for "c1ccc(Nc2nnc(-c3cc(-c4cccnc4)n(-c4ccccc4)n3)s2)cc1" ?
**Result** no

**Query** Could you check what this test reported for "O=C(Nc1cccc(C(F)(F)F)c1)Nc1ccc(OCc2nnc(-c3ccc(Cl)cc3)o2)c(F)c1" ?
**Result** no

**Query** Could you check what this test reported for "CCN(CC)CCCCNc1c2ccccc2[n+](C)c2c1[nH]c1ccccc12" ?
**Result** yes

Consider the record given below.
**Query** Could you check what this test reported for "CN1C(=O)C(=Cc2cn(Cc3ccccc3)c3ccc(Br)cc23)C(=O)N(C)C1=O" ?
**Result** no

----------
system: HCT-116 colon; test: NCI-60 one-dose screen, 48 h (100 = growth as untreated, 0 = no growth, -100 = all killed); details: 10 µM unless noted
The panel holds about 83,000 compounds, 20% with a hit somewhere; the sample as a whole holds those more often.
OBSERVATION_TYPE: growth (%)
Supply the numeric figure in %, leaving out any unit text.

// worked examples, growth included
**Query** State its growth: "Clc1ccc([C@@H]2C[C@@H]3Cc4cc(Br)c5ccccc5c4N2O3)c(Cl)c1"
**Result** 76.6

**Query** State its growth: COc1cccc2c1C(=O)c1c(O)c3c(c(O)c1C2=O)C[C@@](O)(/C(C)=N/NC(=O)c1cccc([N+](=O)[O-])c1)C[C@@H]3OC1CC(N)C(O)C(C)O1 (stereo not given in full)
**Result** -53.8

**Query** State its growth: "CC(=O)c1cc(C(=O)c2ccc3c(c2)Sc2ccccc2N3)c2c(C)cc(C)cn12"
**Result** 3.76

**Query** State its growth: C[N+]1(CCC[N+]2(C)C[C@@H]3[C@H](C2)[C@@H]2C=C[C@H]3C2)CCOCC1 (stereo not given in full)
**Result** 105

**Query** State its growth: "O=C(OCCBr)c1ccc(Cl)c([N+](=O)[O-])c1"
**Result** 92.4

---
**Query** State its growth: "O=C(O)C(=O)O"
**Result** 101

----------
test system: MCF7 breast; experiment: NCI-60 one-dose screen, 48 h (100 = growth as untreated, 0 = no growth, -100 = all killed); details: 10 µM unless noted
About 83,000 compounds went through this panel and 20% of them were active in at least one assay; those are over-represented in the sample as a whole.
OBSERVATION_TYPE: growth (%)
Supply the numeric figure in %, leaving out any unit text.

**Query** State its growth: "O=C1/C(=C/c2ccc([N+](=O)[O-])s2)Oc2ccc(Br)cc21"
**Result** -25.2

**Query** State its growth: "CCOC(=O)c1c(C)nc(C)c(C(=O)OCC)c1-c1cccnc1"
**Result** 109

**Query** State its growth: "O=C(/C=C/c1ccccc1Cl)c1ccc(O)cc1"
**Result** 15

---
**Query** State its growth: COc1cccc2c1C(=O)c1c(O)c3c(c(O)c1C2=O)C[C@@](O)(/C(C)=N/NC(=O)c1cccc([N+](=O)[O-])c1)C[C@@H]3OC1CC(N)C(O)C(C)O1 (stereo not given in full)
**Result** -8.97

**Query** State its growth: "O=C1Nc2ccc(F)cc2/C1=C/c1nc(-c2ccc(F)cc2)n2ccccc12"
**Result** 85.6

----------
Reported values of growth for individual entries
Tested on: NCI-H322M lung
Assay: NCI-60 one-dose screen, 48 h (100 = growth as untreated, 0 = no growth, -100 = all killed)
Settings: 10 µM unless noted
Procedure: Growth inhibition of the NCI-H322M human Non-Small Cell Lung tumor cell line is measured as a screen for anti-cancer activity. Cells are grown in 96 well plates and exposed to the test compound for 48 hours. Compounds are tested at a single concentration, which is 10^-5 M for most compounds. The reported endpoint is percent growth (GI% or GIPRCNT), where numbers from 0 - 100% represent growth inhibition, and numbers from -100% - 0 represent cell death. […]
The panel holds about 83,000 compounds, 20% with a hit somewhere; the sample as a whole holds those more often.
Supply the numeric figure in %, leaving out any unit text.

// worked examples, growth included
**Query** // output growth; input "Oc1[nH]c2ccccc2c1/C=c1/ccc2c(c1)N=C(c1cc(F)cc(F)c1)N=2" ; system NCI-H322M lung
**Result** 83.1

**Query** // output growth; input "COc1ccc(-c2nnc(COc3ccc(NC(=O)Nc4cc(C(F)(F)F)cc(C(F)(F)F)c4)cc3F)o2)cc1" ; system NCI-H322M lung
**Result** 23.4

// moving on: another record for growth
**Query** // output growth; input CCOC(=O)C1=C(COCCN)NC(C)=C(C(=O)OC)C1c1ccccc1Cl (configuration not stated) ; system NCI-H322M lung
**Result** 80.3

----------
tested on: HCC-2998 colon; assay: NCI-60 one-dose screen, 48 h (100 = growth as untreated, 0 = no growth, -100 = all killed); conditions: 10 µM unless noted
This is part of a sample that, as a whole, favours compounds with a hit. Of some 83,000 tested, about 20% had one in any assay.
Reported values of growth for individual entries
Supply the numeric figure in %, leaving out any unit text.

**Query** State its growth: "Oc1ccc(-c2nn(-c3ccccc3)cc2-c2nc3ccccc3s2)cc1"
**Result** 102

**Query** State its growth: CC(=O)O[C@H]1C(=O)[C@@]2(C)C([C@H](OC(=O)c3ccccc3)[C@]3(O)C[C@H](OC(=O)[C@H](O)[C@@H](NC(=O)c4ccccc4)c4ccccc4)C(C)=C1C3(C)C)[C@]1(OC(C)=O)CO[C@@H]1C[C@@H]2O (some centres undefined)
**Result** -22.4

**Query** State its growth: "O=C1/C(=N/O)CCc2ccccc21"
**Result** 103

**Query** State its growth: "COc1ccc2c(c1)nc(N)c1c3ccccc3cn21"
**Result** 103

**Query** State its growth: "Nc1ccc(C2=Nc3cccc4cccc(c34)S2)cc1"
**Result** 61.4

---
**Query** State its growth: "CCCCCCCCCCCCCCCCN=C(CC(=O)O)C(=O)O"
**Result** 104

**Query** State its growth: CC(=O)Oc1c(C)c(OC(C)=O)c2c(c1C(C)=O)OC1CC(=O)C(C(C)=O)=C(O)C21C (centres undefined)
**Result** 102

**Query** State its growth: "CCC1=C(c2ccc(OC)cc2)C(C)(C)Oc2c1ccc(O)c2CN1CCCC1"
**Result** -89.7

**Query** State its growth: CCOC(=O)C1=NN(c2ccc(Cl)cc2)C2C3N(c4ccc(Cl)cc4)N=C(C(=O)OCC)N3c3ccccc3N12 (centres undefined)
**Result** 97.5
